Tested on: SNB-19 CNS
Assay: NCI tumour cell line growth inhibition, 48 h
Outcome Measure: TGI (µM)
The response must be a number in µM with no trailing unit.

Check out these entries, answers already filled in.
Quote TGI with test system SNB-19 CNS for `CC1=C[C@@H]2c3c(c(O)c(O)c4oc5cc(O)cc(O)c5c(=O)c34)[C@@H](c3cc(O)c(O)c4oc5cc(O)cc(O)c5c(=O)c34)[C@@H]2C(C)(C)C1`
13

State, for SNB-19 CNS, measured TGI of the compound listed here: `CCOC(=O)/C=C1/SC(=Nc2ccc(C#N)cc2)N(Cc2ccco2)C1=O`
13.8

Look up SNB-19 CNS data: TGI of `O=C(NCCNCCO)c1ccc(Nc2nc3ccccc3c3occc23)cc1` , then report it.
49.5

Give reported TGI for `COc1cc(-c2ccc[nH]2)[nH]c1/C=C1\N=C(C)C(CC(=O)OCC(C)(C)C)=C1C` (SNB-19 CNS)
2.51

Provide TGI, tested on SNB-19 CNS, for `CN1CCN(c2ccc(NC3=CC(=O)c4ncncc4C3=O)cc2)CC1` .
2.93

Please look at `Cn1cc2c3ccccc3nc-2c2ccccc21` and tell me its recorded TGI on SNB-19 CNS.
10.6

New cases:
Write down measured TGI (SNB-19 CNS) for this compound. `O=C1Nc2ccc(Br)cc2/C1=N/N1C(=O)C(=O)N(C2CCCCC2)C1=S`
69.1

Enter TGI (test system SNB-19 CNS) for `CC(=O)Nc1ccc(/C=c2\sc3nnc(-c4cccnc4)n3c2=O)cc1`
77.2

Name the recorded TGI of `Cn1c(I)c(C#C[Si](C)(C)C)c(=O)[nH]c1=O` , assay system SNB-19 CNS.
30.1

Find the measured TGI of `CCCN(CCC)C(=O)c1c(N2CCN(C)CC2)c2cccnc2n2c(C)cnc12` with SNB-19 CNS as test system.
68.1

Tell me TGI of O=C(NC1=C(Cl)C(=O)c2ccccc2C1=O)C(=O)C(C(=O)c1ccc2ccccc2c1)C1OC(=O)c2ccccc21 (configuration not stated) when tested on SNB-19 CNS.
19

State, for SNB-19 CNS, measured TGI of the compound listed here: `Cc1ccc(-c2nc3sc(C)cn3c2/C=C2\C(=O)Nc3ccc(Cl)cc32)cc1`
27.7

GET TGI | system: SNB-19 CNS | item: `COc1ccc(Nc2nc(N)c(C(=O)c3ccc(Cl)cc3)s2)cc1`
31.2

Give TGI for `COc1ccc2c(c1)/c(=C/C#N)c1c3ccccc3[n+](C)n21` tested on SNB-19 CNS.
51.5

Report TGI from SNB-19 CNS testing of `COC(=O)CC1=C(C)/C(=C/c2[nH]c(-c3ccc[nH]3)cc2OC)N=C1C`
14.2

====

Documented TGI across a set of molecules
System: RPMI-8226 leukemia
Test: NCI tumour cell line growth inhibition, 48 h

Given `COC(=O)c1cc(-c2ccc(S(C)(=O)=O)cc2)[nH]c1N/N=C/c1c(Cl)cccc1Cl` , respond with its TGI.
> 39.1 µM

***
Return TGI (reported value) for this molecule: `O=C(N/C(=C\c1ccc(/C=C(\NC(=O)c2ccccc2)c2nc3c(O)nc(S)nc3[nH]2)cc1)c1nc2c(O)nc(S)nc2[nH]1)c1ccccc1`
> 100 µM

Please indicate TGI recorded for `NS(=O)(=O)c1ccc(N=Nc2c[nH]c(=O)c(O)c2)cc1`
> 100 µM
